- STUDY_SYSTEM: HDAC8 (Homo sapiens (Human), UniProt Q9BY41)
- Sequence (Q9BY41 whole entry): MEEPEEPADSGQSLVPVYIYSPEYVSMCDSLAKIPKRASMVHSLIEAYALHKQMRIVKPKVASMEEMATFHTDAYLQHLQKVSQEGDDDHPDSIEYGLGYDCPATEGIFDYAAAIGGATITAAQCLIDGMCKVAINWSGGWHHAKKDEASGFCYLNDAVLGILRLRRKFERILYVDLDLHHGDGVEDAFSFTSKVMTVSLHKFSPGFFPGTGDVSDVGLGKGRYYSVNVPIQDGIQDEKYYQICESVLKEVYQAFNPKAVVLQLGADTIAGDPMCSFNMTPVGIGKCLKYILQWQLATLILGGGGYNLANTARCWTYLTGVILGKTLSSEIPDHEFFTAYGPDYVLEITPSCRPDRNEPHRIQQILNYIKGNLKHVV
- ASSAY_NAME: HDAC8 in vitro enzymatic assay (fluorescence)
- Assay type: biochemical
- TEST_CONDITIONS: Table 4 selectivity profiling
ASSAY_METRIC: IC50 (nM)

// worked examples, IC50 included
CPD_SMILES: CC(C)(C)c1ccc(-c2nc3cc(C(=O)NO)ccc3o2)cc1
READING_UNIT: nM
IC50: 1000
//
CPD_SMILES: O=C(NO)c1ccc2sc(-c3ccc(F)cc3)nc2c1
READING_UNIT: nM
IC50: 340
//
CPD_SMILES: COc1ncccc1-c1ccc(-c2nc3cc(C(=O)NO)ccc3o2)cc1
READING_UNIT: nM
IC50: 700
//
CPD_SMILES: COc1cccc(-c2cc3ccc(C(=O)NO)cc3o2)c1
READING_UNIT: nM
IC50: 210

(a) O=C(NO)c1ccc2oc(-c3ccc(C(F)(F)F)cc3)nc2c1
(b) O=C(NO)c1ccc2nc(-c3cccc4cccnc34)sc2c1
(c) Cc1noc(C)c1-c1cc2cc(C(=O)NO)ccc2s1
stdin: Rank descending by IC50. Reply: labels, ordered per the request.
stdout: a, c, b

(a) O=C(NO)c1ccc2oc(-c3ccc(C4CC4)cc3)nc2c1
(b) CC(C)c1ccc(Nc2nc3cc(C(=O)NO)ccc3o2)cc1
stdin: Between the entries labelled a and b , which has a larger IC50 value on record? Record your answer as the label of the chosen record.
stdout: a
(a: 1400 nM, b: 200 nM)

###

- STUDY_SYSTEM: UniProtKB O15379
- Sequence (O15379 whole entry): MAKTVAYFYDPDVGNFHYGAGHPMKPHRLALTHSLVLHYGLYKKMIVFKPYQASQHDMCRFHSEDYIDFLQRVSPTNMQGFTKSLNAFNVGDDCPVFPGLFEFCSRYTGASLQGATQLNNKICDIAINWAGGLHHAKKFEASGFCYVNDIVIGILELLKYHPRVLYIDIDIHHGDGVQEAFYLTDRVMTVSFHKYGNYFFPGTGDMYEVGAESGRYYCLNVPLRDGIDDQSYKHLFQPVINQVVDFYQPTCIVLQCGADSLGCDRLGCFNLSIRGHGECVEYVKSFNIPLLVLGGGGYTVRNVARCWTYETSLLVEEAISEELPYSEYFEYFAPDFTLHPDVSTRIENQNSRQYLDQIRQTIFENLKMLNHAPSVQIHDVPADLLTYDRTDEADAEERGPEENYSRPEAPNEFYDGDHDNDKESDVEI
- Sequence (Q9Y618 395-489 partner): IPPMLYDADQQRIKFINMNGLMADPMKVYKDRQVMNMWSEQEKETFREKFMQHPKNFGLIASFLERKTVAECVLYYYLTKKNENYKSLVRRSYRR
- ASSAY_NAME: HDAC3 in vitro enzymatic assay (fluorescence)
- Type: biochemical
- TEST_CONDITIONS: Table 4 selectivity profiling
Structures can show the parent of a compound that is named as a salt.
ASSAY_METRIC: IC50 (nM)

// worked examples, IC50 included
COMPOUND: CC(C)c1ccc(-c2cc3ccc(C(=O)NO)cc3s2)cc1
READING_UNIT: nM
IC50: 10000
--
COMPOUND: CCN(CC)Cc1cc2ccc(C(=O)NO)cc2o1 [Example 117, trifluoroacetate]
READING_UNIT: nM
IC50: 25000

(A) COc1ccc(-c2ccc(-c3nc4cc(C(=O)NO)ccc4o3)c(F)c2)cn1
(B) CC(C)c1ccc(Nc2nc3cc(C(=O)NO)ccc3o2)cc1
stdin: Between the entries labelled A and B , which has a larger IC50 value on record? Record your answer as the label of the chosen record.
stdout: B
(B: 3500 nM, A: 960 nM)

###

- STUDY_SYSTEM: HDAC6 (Homo sapiens (Human))
- ASSAY_NAME: HDAC6 in vitro enzymatic assay (fluorescence)
- Format: biochemical
- TEST_CONDITIONS: Table 3; read-out: IC50 (nM) for inhibition of HDAC6
Where a name gives a salt, the structure may show the parent alone.
ASSAY_METRIC: IC50 (nM)

// worked examples, IC50 included
COMPOUND: Cn1c(NCCc2ccccc2)nc2cc(C(=O)NO)ccc21 [Example 140]
STUDY_SYSTEM: HDAC6 (Homo sapiens (Human))
IC50 / nM: 10
//
COMPOUND: CC(C)c1ccc(-c2nc3ccc(C(=O)NO)cc3o2)cc1 [Example 49]
STUDY_SYSTEM: HDAC6 (Homo sapiens (Human))
IC50 / nM: 9
//
COMPOUND: COc1ccc(-c2nc3cc(C(=O)NO)ccc3o2)cc1 [Example 11]
STUDY_SYSTEM: HDAC6 (Homo sapiens (Human))
IC50 / nM: 8
//
COMPOUND: O=C(NO)c1ccc2sc(Cc3ccc(-c4ccncc4)cc3)nc2c1 [Example 272, trifluoroacetate]
STUDY_SYSTEM: HDAC6 (Homo sapiens (Human))
IC50 / nM: 6

(A) O=C(NO)c1ccc2sc(COCc3ccccc3)nc2c1 [Example 270]
(B) O=C(NO)c1ccc2oc(Nc3cccc(-c4ccccc4)c3)nc2c1 [Example 230]
stdin: Decide: A or B , by lowest recorded IC50. Record your answer as the label of the chosen record.
stdout: A

###

- STUDY_SYSTEM: HDAC6 (Homo sapiens (Human), UniProt Q9UBN7)
- Sequence (Q9UBN7 whole entry): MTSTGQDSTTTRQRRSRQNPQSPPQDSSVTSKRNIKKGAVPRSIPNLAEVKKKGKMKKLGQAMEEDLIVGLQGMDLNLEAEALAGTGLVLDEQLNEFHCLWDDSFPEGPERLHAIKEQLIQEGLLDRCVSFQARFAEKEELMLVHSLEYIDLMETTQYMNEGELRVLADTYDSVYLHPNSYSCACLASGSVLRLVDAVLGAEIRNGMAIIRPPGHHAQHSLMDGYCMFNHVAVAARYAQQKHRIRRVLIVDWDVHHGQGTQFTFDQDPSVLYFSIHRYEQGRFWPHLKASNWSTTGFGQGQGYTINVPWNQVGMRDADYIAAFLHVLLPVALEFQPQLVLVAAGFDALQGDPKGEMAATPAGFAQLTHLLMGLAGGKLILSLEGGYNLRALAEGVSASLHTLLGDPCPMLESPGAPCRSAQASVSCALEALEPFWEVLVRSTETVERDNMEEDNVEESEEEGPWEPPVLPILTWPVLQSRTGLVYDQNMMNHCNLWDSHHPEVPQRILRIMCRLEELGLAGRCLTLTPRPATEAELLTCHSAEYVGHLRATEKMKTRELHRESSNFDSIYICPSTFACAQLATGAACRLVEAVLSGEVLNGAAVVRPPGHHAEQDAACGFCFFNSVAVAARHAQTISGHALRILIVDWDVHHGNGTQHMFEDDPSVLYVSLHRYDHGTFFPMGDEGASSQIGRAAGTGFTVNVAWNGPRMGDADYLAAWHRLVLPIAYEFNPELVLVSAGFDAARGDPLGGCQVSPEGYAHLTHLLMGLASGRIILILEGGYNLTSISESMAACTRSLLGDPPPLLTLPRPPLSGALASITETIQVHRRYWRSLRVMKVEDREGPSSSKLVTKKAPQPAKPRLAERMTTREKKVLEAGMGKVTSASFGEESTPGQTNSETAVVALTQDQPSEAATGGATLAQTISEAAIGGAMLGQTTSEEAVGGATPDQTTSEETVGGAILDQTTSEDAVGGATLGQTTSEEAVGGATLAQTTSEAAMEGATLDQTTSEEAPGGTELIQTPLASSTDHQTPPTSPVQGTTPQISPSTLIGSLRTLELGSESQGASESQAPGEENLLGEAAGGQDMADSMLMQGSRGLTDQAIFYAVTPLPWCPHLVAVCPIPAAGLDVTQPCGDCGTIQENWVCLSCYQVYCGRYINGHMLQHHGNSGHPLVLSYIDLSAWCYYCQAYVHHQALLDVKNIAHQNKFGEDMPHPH
- ASSAY_NAME: HDAC6 in vitro enzymatic assay (fluorescence)
- Type: biochemical
- TEST_CONDITIONS: Table 3; read-out: IC50 (nM) for inhibition of HDAC6
- Method: Biological Tests Method for Measurement of Enzymatic Activity of HDACs Materials & Methods All Examples were tested in HDAC1,2,3,6 and 8 in vitro enzymatic assays. […] After enzymatic reaction, developer was added and after an additional incubation time, fluorescence intensity was measured at an excitation wavelength of 360 nm and an emission wavelength of 460 nm. […]
Where a name gives a salt, the structure may show the parent alone.
ASSAY_METRIC: IC50 (nM)

// worked examples, IC50 included
MOLECULE: COc1ccc(-c2nc3ccc(C(=O)NO)cc3o2)cc1
ASSAY_METRIC: IC50
MEASURED_RESULT: 17
--
MOLECULE: CC1CCN(c2ccc(-c3nc4cc(C(=O)NO)ccc4o3)cn2)CC1 [Example 152, trifluoroacetate]
ASSAY_METRIC: IC50
MEASURED_RESULT: 30
--
MOLECULE: O=C(NO)c1ccc2sc(-c3ccc4[nH]ccc4c3)cc2c1
ASSAY_METRIC: IC50
MEASURED_RESULT: 22
--
MOLECULE: COc1ccc(-c2nc3cc(C(=O)NO)ccc3s2)cc1
ASSAY_METRIC: IC50
MEASURED_RESULT: 12
--
MOLECULE: O=C(NO)c1ccc2oc(-c3ccc(CN4CCN(c5ccncc5)CC4)cc3)nc2c1 [Example 209, trifluoroacetate]
ASSAY_METRIC: IC50
MEASURED_RESULT: 35

(a) O=C(NO)c1ccc2oc(NCc3ccc(-c4ccccc4)cc3)nc2c1
(b) CC(C)c1ccc(Nc2nc3cc(C(=O)NO)ccc3n2C)cc1
(c) O=C(NO)c1ccc2oc(COc3cccc(F)c3)cc2c1
(d) O=C(NO)c1ccc2nc(Nc3cccc(-c4ccccc4)c3)[nH]c2c1
stdin: Rank descending by IC50. Reply: labels, ordered per the request.
stdout: d, b, c, a

###

- STUDY_SYSTEM: HDAC6 (Homo sapiens (Human), UniProt Q9UBN7)
- ASSAY_NAME: HDAC6 in vitro enzymatic assay (fluorescence)
- Assay type: biochemical
- TEST_CONDITIONS: Table 3; read-out: IC50 (nM) for inhibition of HDAC6
ASSAY_METRIC: IC50 (nM)

// worked examples, IC50 included
COMPOUND: COc1ncccc1-c1cc2cc(C(=O)NO)ccc2s1
MEASURED_RESULT: 47
--
COMPOUND: O=C(NO)c1ccc2sc(CO)nc2c1
MEASURED_RESULT: 37
--
COMPOUND: CCc1ccc(-c2nc3cc(C(=O)NO)ccc3s2)cc1
MEASURED_RESULT: 11
--
COMPOUND: CC(C)c1ccc(-c2nc3ncc(C(=O)NO)cc3[nH]2)cc1
MEASURED_RESULT: 11
--
COMPOUND: O=C(NO)c1ccc2oc(NC3CCCCCCC3)nc2c1
MEASURED_RESULT: 51

(1) CC(C)c1ccc(-c2cc3cc(C(=O)NO)cnc3o2)cc1
(2) O=C(NO)c1ccc2oc(-c3ccccc3)nc2c1
(3) CN(C)C(=O)c1ccc(-c2cc3cc(C(=O)NO)ccc3s2)cc1
(4) CC(C)(C)c1ccc(OCc2cc3cc(C(=O)NO)ccc3o2)cc1
stdin: Sort the compounds on IC50; start with the lowest figure. Reply: labels, ordered per the request.
stdout: 2, 1, 3, 4

(P) CC(C)c1ccc(-c2cc3ncc(C(=O)NO)cc3o2)cc1
(Q) O=C(NO)c1ccc2sc(CN3CCCCC3)nc2c1
stdin: Decide: P or Q , by lowest recorded IC50. Record your answer as the label of the chosen record.
stdout: Q

###

- STUDY_SYSTEM: HDAC8 (Homo sapiens (Human), UniProt Q9BY41)
- ASSAY_NAME: HDAC8 in vitro enzymatic assay (fluorescence)
- Format: biochemical
- TEST_CONDITIONS: Table 4 selectivity profiling
ASSAY_METRIC: IC50 (nM)

// worked examples, IC50 included
MOLECULE: O=C(NO)c1ccc2oc(-c3ccc(OC(F)(F)F)cc3)nc2c1
MEASURED_RESULT: 800
--
MOLECULE: CC(C)c1ccc(-c2cc3cc(C(=O)NO)cnc3o2)cc1
MEASURED_RESULT: 120
--
MOLECULE: O=C(NO)c1ccc2oc(COc3cccc(F)c3)cc2c1
MEASURED_RESULT: 1500

(a) CC(C)c1ccc(-c2nc3cc(C(=O)NO)ccc3o2)cc1
(b) O=C(NO)c1ccc2nc(Nc3cccc(OCc4ccccc4)c3)[nH]c2c1
(c) CC(C)(C)c1ccc(-c2nc3cc(C(=O)NO)ccc3s2)cc1
(d) CC(C)c1ccc(-c2nc3cc(C(=O)NO)ccc3s2)cc1
stdin: Sort the molecules on IC50; start with the lowest figure. Reply: labels, ordered per the request.
stdout: d, b, c, a
(d: 28 nM, b: 240 nM, c: 410 nM, a: 1200 nM)

(A) O=C(NO)c1ccc2sc(-c3cccnc3)cc2c1
(B) COc1ccc(-c2ccc(-c3nc4cc(C(=O)NO)ccc4o3)c(F)c2)cn1
stdin: Decide: A or B , by lowest recorded IC50. Record your answer as the label of the chosen record.
stdout: B
